ASSAY PROTOCOL: soluble on expression in E. coli; label from the status in PepcDB or PDB records
READOUT: soluble on expression in E. coli

{"BIOPOLYMER SEQUENCE": "EIDGTTYVDGGLFKDLPASVIREDCRYLIGVHLNPKEPSDYKKSLFGIAERCFGYIFRANSLPDRKLCDLLIESREIIKFKPFHVEPAEEIAAFGYKMAKQVLKTTSITRNP", "soluble on expression in E. coli": "not soluble"}
{"BIOPOLYMER SEQUENCE": "MEGQENKVLFGLENVHYATYSETDGVITYDTPKPLPGGVEISVEPQGDMIKFYADNIVYYQAPNNQGYEGTLTIASIPEGFATDCLGEELDTVDGVLTEKSDAKPKPFALLFEFDGDVKSVRQVLYNCTASRPTVASSTLEHHHHHH", "soluble on expression in E. coli": "soluble"}
{"BIOPOLYMER SEQUENCE": "MGSDKIHHHHHHMTKRAYQYRFYPTPEQAQLLARTFGCVRFVYNAVLRYRTDAFYQRQERIGYVEANAYLTRMKKADETAFLNEVSSVPLQQCLRHQQAAFKHFFEGRARYPAFKNKRHRQAAEFTRSAFKYRNGQLFLAKCKEPLAIRWSRELPSEPTTITISKDSAGRYFVSCLCEFTPETLPVTPRMTGIDLGLKDLFITDQGERIGNPRHTAKYAARLAKAQRRLSKKKLGSANRAKARKRVARLHAKISDCRMDRLHKLSRRLINENQVVCVESLKVKNMLRNPSLAKAIADAGWGEFARQLEYKAQWAGRQLVRIDPWYPSSKRCSDCGHIKDALPLSVRAWDCPACGVTHDRDINAARNIKAAGLAVLALGENVSGMEPVSVSGSR", "soluble on expression in E. coli": "not soluble"}
{"BIOPOLYMER SEQUENCE": "MTDNLLSISAACLFDDQGNLLLVRKRGTQAFMLPGGKREPGETPLAALQRELLEELRLPMGASTFEHLGSFQAPAANEANTRVDADIYVARLPHAVCAQAELEELAWLVPGQAQPDNLAPLLRDHVLPALARRAAENPETQAEHRTRPDHVR", "soluble on expression in E. coli": "not soluble"}

With those in mind, consider the next sequence.
Prompt: Consider the sequence shown here: `DTGTISTEEFYNFDNWKGFGYELFEDWSRWVYDWLPDGWNLWKELDRNRSGQYHIYDPLALDLDGDGIETVAAKGFSGSLFDHNGNGIRTATGWVSADDGLLVRDLNGNGIIDNGAELFGDNTKLADGSFAKHGYAALAELDSNGDNIINAADAAFQSLRVWQDLNQDGISQANELRTLEELGIQSLDLAYKDVNKNLGNGNTLAQQGSYTKTDGTTAKMGDLLLAADNLHSRFTNKMLSISHVRENTISPFVLGCLNK` What is its recorded soluble on expression in E. coli?
Response: not soluble

###

ASSAY PROTOCOL: soluble on expression in E. coli; label from the status in PepcDB or PDB records
READOUT: soluble on expression in E. coli

Some solved cases for reference:
{"BIOPOLYMER SEQUENCE": "GPGSMMEATERRRKRERNERNDERRDDCEVLAKTDEKRTIVEELFQRLQSLDHTHMELEARLCRRAEVSDKSGSTSSEREWKGRRARKTRTEVMPGVAEEDYKRIEEFCLDKGKEGSVTRSTTRDVSFGQWRYTYTSGKPSECIACIRKERLFVLDVPVPSGAYDIRFSACTEITGELPSPNFAPTRGYTRHKDRLSVTDGLFRYDLTRVRDKHTTGYEVEVEFLLKDNDEKKITDSHVEELVGRALSLATLTASEG", "soluble on expression in E. coli": "soluble"}
{"BIOPOLYMER SEQUENCE": "MSLSEDLFDVEVRNFEEGDKVTGTVTSVEDKQVYVGIPGSKLDGVVPISELSNIHVETASDVVSVGDTLDLIVTKVEDDILVLSKRKVDAEKASDDIKAKFESGEVFEAVVSDVVKGGLVVDLGVRAFVPASLVEDHFVEDFADYKGTTLTFKVVEFEPENNRVILSHRAVVETEKASQKQALLSEIKEGDVIEGTVQRLANFGAFVDIGGVDGLVHISQISYKHIATPQEALEEGQKVTVKVIGIDPENERISLSIKATLPGPWDGIAEKAPVGSVLEGKVVRLVTFGAFVEIFPGVEGLVHISQISHEHIGTPQEVLSEGQTVEVKVLEVNEADKRLSLSIKELKDAPVEEADYELPEENTGFQMSDLIGDKLKGLQNDDKEGHHHHHH", "soluble on expression in E. coli": "soluble"}
{"BIOPOLYMER SEQUENCE": "MAKKLSKKGDIQRDHFALISSFPLNQTPETKSEKLQKNLLLHKYYQGHRERLRRRYLKSKGNAIEDYEYLELLLFRTIPRANTKPIAKSLIAHFGSLADVLGADIHRLQEVQGCGPATALDLKIISDVAGRLARAQLFKRDIFSSWDQVLAYCKAVMAHETREQFRVLFLDKKNGLLADEVQQTGTIDHTPVYPREVISRALQLSASGLILVHNHPSGDATPSKADVTMTYRLKDAANALGITVHDHLIIARNNYTSFKELKFI", "soluble on expression in E. coli": "not soluble"}
{"BIOPOLYMER SEQUENCE": "MGSDKIHHHHHHMSHNIKYRQLKAFRILAESGSFKHAADSLAVTQPSMSIMIRELESDLGVALIDRATRSAELTDAGRDFYQQIKGSLDQLEKAYSYANAAGKAEHGRVRIATLTSLAAEAVTTAIARMHAERPGIQIELMERTYFLALRRREVDLGVGILHEAHADLDFQYLFSDQLVVVTPKGHPLARQRQPLKHLGKYDVVVVSPGPSLEALQELDADCAPPVQVEQPSTAITMVRKGLGVTVTSSSATTGLDMRGLAAVPIPGTTRDVGVITLAQARLSPVASAFLRCLRHVHPAG", "soluble on expression in E. coli": "not soluble"}
{"BIOPOLYMER SEQUENCE": "GPGSMTSKKAAKEKDEYTPQERLTAAALEYKKLEGHNQSSIERMYGALSSPFRVSNKPCEVPRAAVLRCFEEILGKTNNGENGSTDNLAETTVVGRSISGGNNADGRVLLSSDSRFPSVHRCYDAVLQYESCVVEKTLAQHHSLLAGFEARQLQEAESANEVPKAVASGA", "soluble on expression in E. coli": "not soluble"}

With those in mind, consider the next sequence.
Prompt: Consider the sequence shown here: `MTPDHLLMLVALATFQKGIVPPTPAMELVMQVGACYHALTDAPRMGKLRLFLGKKPMAKLEQFLTEIENETDADF` What is its recorded soluble on expression in E. coli?
Response: not soluble

###

ASSAY PROTOCOL: soluble on expression in E. coli; label from the status in PepcDB or PDB records
READOUT: soluble on expression in E. coli

Some solved cases for reference:
{"BIOPOLYMER SEQUENCE": "MSLSQPRYLSESKVAIKQSSDINGSNLNVGLLLGTGNPSSAEDALYLKEYISSPDMLGVLDKQLNFRQAFGQSGWDFFYHLSEGATREQFLNYYRDRISVVYDDKTGLLTLGTQGFSPEFAEAFNQAVLKESEKFINEISHRIAREQLQFAEDEMQAARVRLNRSKTELLTYQNSNNVLDPEAQALAATSLVNTLVSQRIQMEAELRNLLTYLRDDAPQVISAQNALKSLSTQIDNEKNKITAPDGHKLNRMAVDFEEIKAKVQFDGEIYKLTLTSIEKTRVDAARKLKVLSVISSPQLPEESAFPNREGHHHHHH", "RESULT": "soluble"}
{"BIOPOLYMER SEQUENCE": "MNPIPADVAAVVLAGGVGRRFGRPKALAMMDGISLVERAVEALSSGPADVYVSVSPALERPVARLVGSRRVIVDLVEQAPCEGPLRAFLTAASTLVSYSNLVFMPVDAPWASWRDLEPIYNASKAIGSGASYFSGEGIVHPLFLAARRKSLLTAAWTACWGRAEKRASAILRSLDPLILLGSSETRSPLALATVNTPQDLWRPSRVPAPAEGYILLEGHSILYKISSTMNSYYSALALEAEYKLYRRLGLLRLASHVLKDAAALNVSTSLIQQESMAGGLGLEHHHHHH", "RESULT": "not soluble"}
{"BIOPOLYMER SEQUENCE": "SAASEHRCVGCGFRVKSLFIQYSPGNIRLMKCGNCKEVADEYIECERMIIFIDLILHRPKVYRHVLYNAINPATVNIQHLLWKLVFAYLLLDCYRSLLLRKSDEESSFSDSPVLLSIKVRSFLFNGLN", "RESULT": "soluble"}
{"BIOPOLYMER SEQUENCE": "MAPNASCLCVHVRSEEWDLMTFDANPYDSVKKIKEHVRSKTKVPVQDQVLLLGSKILKPRRSLSSYGIDKEKTIHLTLKVVKPSDEELPLFLVESGDEAKRHLLQVRRSSSVAQVKAMIETKTGIIPETQIVTCNGKRLEDGKMMADYGIRKGNLLFLACYCIGG", "RESULT": "soluble"}
{"BIOPOLYMER SEQUENCE": "MSQLNDSDIILFEYNFHYQNIRSKNTLDIAFGIDRNFLFGCGVAIASILLNNREISCEFHVFTDYISDKDKLYFSDLAKQYNSRINIYVINCDKLKSLPSTKNWTYATYFRFIIADYFYHKHEKILYLDADIACKGSIKELLDYQFSTNEIAAVVAERDVEWWQNRASVLTTPQLASGYFNAGFLLINIDEWNLNNISSKAIEMLRDPDWVSKITHLDQDVLNVLLNGKVKFISEKYNTRYSINYELKDKVDNPVNDDTVFIHYVGPTKPWHEWADYPVSRSFLIAKAASPWSKEDLLKPVNSNQYRYCAKHKFKQKHYMAGIFNYLKYYKEKCF", "RESULT": "not soluble"}

With those in mind, consider the next sequence.
Prompt: Consider the sequence shown here: `MGSDKIHHHHHHMSDLITLAQLSQGYRYNSDSLILADFILKQGIKGAVFDVGAGCGIIGILLKKNIANLSLSLIDIQKENIELIEKNLKSNKIQGDIFHDDFNQFQIIKKFDFIVCNPPFYRQGAYKSEDQHKAISKFQEFLPLHSFLAKTNSMLKPNGTLYFCYEALALDEICFILKDMKMKITKLCFVHTHQSKKARLVLIQVKKGSKSPCEILPPFFVYENEILSKQMQEIHLRFRLKSYDI` What is its recorded soluble on expression in E. coli?
Response: not soluble
